assay: Dimensions (size, PDI) of DNPs co-assembled from IAJDs and Luc-mRNA by DLS; type: physicochemical; conditions: Table 17; DNPs used in vivo, IAJD 4 mg/mL, Luc-mRNA 0.10 mg/mL, acetate pH 4.0
Exercise: state measured PDI for each of the compounds provided.
One number for each entry.

INSERT INTO assay_data (compound, assay_result) VALUES
  ('CCCCCCCCCCCCCCCCCCOc1cc(COC(=O)CCCN2CCN(C)CC2)cc(OCCCCCCCCCCCC)c1 [IAJD 107]', 0.279);

I would be grateful if you could provide PDI for each of the following entries.
1. CCCCCCCCCCCCCCCCCOc1cc(COC(=O)c2cc(OCCOCCOCCCC(=O)CCCN3CCCCC3)c(OCCOCCOCCOCc3ccccc3)c(OCCOCCOCCOC(=O)CCCN3CCCCC3)c2)cc(OCCCCCCCCCCC)c1 [IAJD 158]
2. CCCCCCCCCCCCCCCOc1cc(COC(=O)CCCN2CCN(CCO)CC2)cc(OCCCCCCCCCC)c1 [IAJD 142]

OUT:
[0.246, 0.293]
